For each entry below, report its IC50 value.
Target: rat brain bradykinin receptors
Experiment: Radioligand competition binding against [3H]DALKD in rat brain membranes
Details: Table 4; [3H]DALKD, rat brain bradykinin receptors, pH 7.4; read-out: IC50 (nM) at pH 7.4, N > 2
Field note: include the unit after the figure.

FLRIRPK [AP107-1, Ac-Phe-Leu-Arg-Ile-Arg-Pro-Lys] | 120 nM

In the following, a different substance is considered.
FLRIRPR [AN104] tested on rat brain bradykinin receptors gave IC50: 210 nM

###

Experiment: Stability in plasma (t1/2)
endpoint.name: half-life

CC[C@H](C)[C@H](NC(=O)[C@H](CCCNC(=N)N)NC(=O)[C@@H](CC(C)C)NC(=O)[C@@H](N)Cc1ccccc1)C(=O)N[C@@H](CCCNC(=N)N)C(=O)N1CCC[C@H]1C(=O)N[C@@H](CCCCN)C(=O)O [SH145] | > 24 h

In the following, a different compound is considered.
In plain terms, CC[C@H](C)[C@H](NC(=O)[C@H](CCCNC(=N)N)NC(=O)[C@H](CC(C)C)NC(=O)[C@@H](N)Cc1ccccc1)C(=O)N[C@@H](CCCNC(=N)N)C(=O)N1CCC[C@H]1C(=O)N[C@@H](CCCCN)C(=O)O [LYS1044, Phe-Leu-Arg-Ile-Arg-Pro-Lys] has a documented half-life of < 3 h

The reported numbers originate from patent US10428115B2.
